Reference source for all entries: patent US20240360227A1

I'd be grateful if you could share measured kon for these entries.
target: Recombinant human his-tagged IGF R extracellular domain protein (human) (UniProt P08069); assay: SPR, Ab captured via anti-huIgG Fc, pH 7.4
Answer in M⁻¹ s⁻¹, number only, no unit symbol.

Asked: Query (binder): VRDN-02028 (antibody, V domains shown) VH: QVQLQESGPGLVKPSETLSLTCTVSGYSITGGYLWNWIRQPPGKGLEWIGYISYDGTNNYKPSLKDRVTISRDTSKNQFSLKLSSVTAADTAVYYCARYGRVFFDHWGQGTLVTVSS VL: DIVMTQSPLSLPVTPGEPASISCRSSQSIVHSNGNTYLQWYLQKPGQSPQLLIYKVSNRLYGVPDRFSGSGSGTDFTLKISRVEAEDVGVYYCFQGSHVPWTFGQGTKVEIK ; field requested: kon
Given back: 103000

Asked: Query (binder): VRDN-02009 (antibody, V domains shown) VH: QVQLQESGPGLVKPSETLSLTCTVSGYSITGGYHWNWIRQPPGKGLEWIGYISYDGTNNYKPSLKDRVTISRDTSKNQFSLKLSSVTAADTAVYYCARYGRVFFDYWGQGTLVTVSS VL: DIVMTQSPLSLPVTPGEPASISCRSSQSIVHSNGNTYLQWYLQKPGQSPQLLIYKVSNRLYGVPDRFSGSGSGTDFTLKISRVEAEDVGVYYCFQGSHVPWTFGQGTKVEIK ; field requested: kon
Given back: 90000

Asked: Query (binder): VRDN-02015 (antibody, V domains shown) VH: QVQLQESGPGLVKPSETLSLTCTVSGYSITGGYLWNWIRQPPGKGLEWIGYISHDGTNNYKPSLKDRVTISRDTSKNQFSLKLSSVTAADTAVYYCARYGRVFFDYWGQGTLVTVSS VL: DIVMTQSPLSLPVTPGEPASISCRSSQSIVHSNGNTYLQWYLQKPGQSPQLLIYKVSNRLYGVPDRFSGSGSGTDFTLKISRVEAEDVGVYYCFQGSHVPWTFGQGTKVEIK ; field requested: kon
Given back: 89500

Asked: Query (binder): VRDN-02029 (antibody, V domains shown) VH: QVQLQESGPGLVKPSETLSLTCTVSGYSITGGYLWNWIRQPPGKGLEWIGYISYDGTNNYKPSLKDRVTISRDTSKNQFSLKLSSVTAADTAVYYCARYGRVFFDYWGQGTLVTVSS VL: DIVMTQSPLSLPVTPGEPASISCHSSQSIVHSNGNTYLQWYLQKPGQSPQLLIYKVSNRLYGVPDRFSGSGSGTDFTLKISRVEAEDVGVYYCFQGSHVPWTFGQGTKVEIK ; field requested: kon
Given back: 92400
